Origin of measurements: ChEMBL document CHEMBL1275301

# Test system: Rattus norvegicus
# MEASUREMENT PROTOCOL: Antihypertensive activity against DOCA-salt induced hypertension in albino rat assessed as reduction in systolic blood pressure at 10 mg/kg, po after 180 mins by tail-cuff method
# Assay type: functional
# PROTOCOL CONDITIONS: Artery, 3 h
Each entry gets NOT MET if its inhibition in vivo at 10 mg/kg stays under 20%, and MET if its inhibition in vivo at 10 mg/kg is 20% or above.

[in] hey, is inhibition in vivo at 10 mg/kg for this one >= 20%? CC1=C(C(=O)Nc2ccc(F)cc2)C(c2ccc([N+](=O)[O-])cc2)N=C(SCc2ccccc2)N1 (stereo not given)
[out] MET

[in] hey, is inhibition in vivo at 10 mg/kg for this one >= 20%? COc1ccc(C2N=C(SCc3cccc(Cl)c3)NC(C)=C2C(=O)Nc2ccc(Br)cc2)cc1 (stereo not given)
[out] MET

[in] hey, is inhibition in vivo at 10 mg/kg for this one >= 20%? "COC(=O)C1=C(C)NC(C)=C(C(=O)OC)C1c1ccccc1[N+](=O)[O-]"
[out] NOT MET

[in] hey, is inhibition in vivo at 10 mg/kg for this one >= 20%? CC1=C(C(=O)Nc2ccc(Br)cc2)C(c2ccc(Cl)cc2Cl)N=C(SCc2cccc(Cl)c2)N1 (stereo not given)
[out] NOT MET

[in] hey, is inhibition in vivo at 10 mg/kg for this one >= 20%? CC1=C(C(=O)Nc2ccc([N+](=O)[O-])cc2)C(c2cccc([N+](=O)[O-])c2)N=C(SCc2ccccc2)N1 (stereo not given)
[out] NOT MET

[in] hey, is inhibition in vivo at 10 mg/kg for this one >= 20%? COc1ccc(C2N=C(SCc3ccccc3Cl)NC(C)=C2C(=O)Nc2ccc(F)cc2)cc1OC (stereo not given)
[out] MET

[in] hey, is inhibition in vivo at 10 mg/kg for this one >= 20%? COc1ccc(C2N=C(SCc3ccc(Cl)cc3)NC(C)=C2C(=O)Nc2ccc(Br)cc2)cc1 (stereo not given)
[out] MET

[in] hey, is inhibition in vivo at 10 mg/kg for this one >= 20%? COc1ccc(C2N=C(SCc3ccccc3Cl)NC(C)=C2C(=O)Nc2ccc(Br)cc2)cc1 (stereo not given)
[out] NOT MET

[in] hey, is inhibition in vivo at 10 mg/kg for this one >= 20%? CC1=C(C(=O)Nc2ccc([N+](=O)[O-])cc2)C(c2ccc(Br)cc2)N=C(SCc2ccccc2Cl)N1 (stereo not given)
[out] NOT MET

[in] hey, is inhibition in vivo at 10 mg/kg for this one >= 20%? CC1=C(C(=O)Nc2ccc([N+](=O)[O-])cc2)C(c2cccc([N+](=O)[O-])c2)N=C(SCc2ccc(Cl)cc2)N1 (stereo not given)
[out] NOT MET

[in] hey, is inhibition in vivo at 10 mg/kg for this one >= 20%? COc1ccc(C2N=C(SCc3ccccc3)NC(C)=C2C(=O)Nc2ccc(F)cc2)cc1OC (stereo not given)
[out] NOT MET

[in] hey, is inhibition in vivo at 10 mg/kg for this one >= 20%? CC1=C(C(=O)Nc2ccc([N+](=O)[O-])cc2)C(c2ccc(Br)cc2)N=C(SCc2cccc(Cl)c2)N1 (stereo not given)
[out] NOT MET

[in] hey, is inhibition in vivo at 10 mg/kg for this one >= 20%? CC1=C(C(=O)Nc2ccc(Br)cc2)C(c2ccc(Cl)cc2Cl)N=C(SCc2ccc(Cl)cc2)N1 (stereo not given)
[out] MET

[in] hey, is inhibition in vivo at 10 mg/kg for this one >= 20%? CC1=C(C(=O)Nc2ccc(Br)cc2)C(c2ccc(Cl)cc2Cl)N=C(SCc2ccccc2)N1 (stereo not given)
[out] NOT MET
